Tested on: Leishmania major
Method Description: Antileishmanial activity against promastigote form of Leishmania major MHOM/IL/81/BNI after 96 hrs by resazurin-based spectrofluorimetric method
Assay type: functional, organism-based
Reported log10 IC50 values are given for each entry in this list.
Hello, just confirming the data are log10 of IC50 with units of µM.

The cases that follow already have their log10 IC50 on record.
Record COc1ccc(-c2nc3ccccn3c2-c2ccccc2)cc1 . Reported log10 IC50: 1.42

Record c1ccc(-c2nc3ccccn3c2-c2cccnc2)cc1 . Reported log10 IC50: 1.35

Record c1ccc(-c2nc3ccccn3c2-c2ccncc2)cc1 . Reported log10 IC50: 0.81

Record Clc1cc(Cl)cc(-c2c(-c3ccccc3)nc3ccccn23)c1 . Reported log10 IC50: 0.89

Record COc1ccccc1-c1nc2ccccn2c1-c1ccccc1 . Reported log10 IC50: 1.26

Record c1ccc(-c2nc3ccccn3c2-c2ccsc2)cc1 . Reported log10 IC50: 1.16

Record O=[N+]([O-])c1ccc(-c2c(-c3ccccc3)nc3ccccn23)cc1 . Reported log10 IC50: 0.69

Record Fc1ccc(-c2nc3ccccn3c2-c2cccnc2)cc1 . Reported log10 IC50: 1.58

Next:
Record NC(=O)c1ccc(-c2c(-c3ccccc3)nc3ccccn23)cc1 . Reported log10 IC50: 1.43

Record CC(C)(C)C(=O)Oc1ccc(-c2c(-c3ccccc3)nc3ccccn23)cc1 . Reported log10 IC50: 0.85

Record Clc1cccc(-c2nc3ccccn3c2-c2ccccc2)c1 . Reported log10 IC50: 0.64

Record Clc1cc(Cl)cc(-c2nc3ccccn3c2-c2ccccc2)c1 . Reported log10 IC50: 1.59

Record Fc1ccccc1-c1nc2ccccn2c1-c1ccccc1 . Reported log10 IC50: 1.59

Record c1ccc(-c2nc3ccccn3c2-c2ccccc2)cc1 . Reported log10 IC50: 1.35

Record Cc1ccc(-c2c(-c3ccccc3)nc3ccccn23)cc1 . Reported log10 IC50: 0.60

Record Fc1ccccc1-c1nc2ccccn2c1-c1cccnc1 . Reported log10 IC50: 1.54

Record Nc1ccc(-c2c(-c3ccccc3)nc3ccccn23)cc1 . Reported log10 IC50: 1.63

Record N=C(N)c1ccc(OCCCCCOc2ccc(C(=N)N)cc2)cc1 [PENTAMIDINE] . Reported log10 IC50: 0.68

###

Method Description: Methanol-buffer partition coefficient, log D of the compound by RP-HPLC analysis at pH 7.5
Assay type: physicochemical
Quick rule for you: chromatographic logD at 5 or higher means criterion met, lower means criterion not met.

Dear colleague, could you confirm whether CCOC(=O)c1ccc(-c2nc3ccccn3c2-c2ccccc2)cc1 has chromatographic logD at or above 5?
criterion met

Dear colleague, could you confirm whether O=[N+]([O-])c1ccc(-c2nc3ccccn3c2-c2ccccc2)cc1 has chromatographic logD at or above 5?
criterion not met

Dear colleague, could you confirm whether Clc1cccc(-c2nc3ccccn3c2-c2ccccc2)c1 has chromatographic logD at or above 5?
criterion met

Dear colleague, could you confirm whether COc1ccc(-c2nc3ccccn3c2-c2ccccc2)cc1 has chromatographic logD at or above 5?
criterion not met

Dear colleague, could you confirm whether Clc1cc(Cl)cc(-c2c(-c3ccccc3)nc3ccccn23)c1 has chromatographic logD at or above 5?
criterion met

Next:
Dear colleague, could you confirm whether c1ccc(-c2nc3ccccn3c2-c2ccccc2)cc1 has chromatographic logD at or above 5?
criterion not met

Dear colleague, could you confirm whether CCOC(=O)c1ccc(-c2c(-c3ccccc3)nc3ccccn23)cc1 has chromatographic logD at or above 5?
criterion met

###

Reported inhibition at 10 µM values are given for each entry in this list.
Tested on: Leishmania major
Method Description: Antileishmanial activity against amastigote form of Leishmania major MHOM/IL/81/BNI infected in Balb/c mouse peritoneal macrophages assessed as inhibition of intracellular amastigote burden at 10 uM […] by May-Grunwald-Geimsa staining
Type: functional
Record the value in %, omitting the unit from your answer.

The cases that follow already have their inhibition at 10 µM on record.
Record Cc1ccc(-c2c(-c3ccccc3)nc3ccccn23)cc1 . Reported inhibition at 10 µM: 96

Record c1ccc(-c2nc3ccccn3c2-c2ccccc2)cc1 . Reported inhibition at 10 µM: 84

Record Clc1cc(Cl)cc(-c2c(-c3ccccc3)nc3ccccn23)c1 . Reported inhibition at 10 µM: 79

Record Clc1cccc(-c2nc3ccccn3c2-c2ccccc2)c1 . Reported inhibition at 10 µM: 94

Record CC(C)(C)C(=O)Oc1ccc(-c2c(-c3ccccc3)nc3ccccn23)cc1 . Reported inhibition at 10 µM: 95

Next:
Record c1ccc(-c2nc3ccccn3c2-c2ccncc2)cc1 . Reported inhibition at 10 µM: 32

Record O=[N+]([O-])c1ccc(-c2c(-c3ccccc3)nc3ccccn23)cc1 . Reported inhibition at 10 µM: 68

Record COc1ccc(-c2c(-c3ccccc3)nc3ccccn23)cc1 . Reported inhibition at 10 µM: 71

Record CCOC(=O)c1ccc(-c2c(-c3ccccc3)nc3ccccn23)cc1 . Reported inhibition at 10 µM: 18

Record O=[N+]([O-])c1ccc(-c2nc3ccccn3c2-c2ccccc2)cc1 . Reported inhibition at 10 µM: 84

Record CCOC(=O)c1ccc(-c2nc3ccccn3c2-c2ccccc2)cc1 . Reported inhibition at 10 µM: 86

Record N=C(N)c1ccc(OCCCCCOc2ccc(C(=N)N)cc2)cc1 . Reported inhibition at 10 µM: 99

Record COc1ccc(-c2nc3ccccn3c2-c2ccccc2)cc1 . Reported inhibition at 10 µM: 85

###

Method Description: Inhibition of Leishmania major recombinant His-tagged CK1.2 using RRKHAAIGpSAYSITA as substrate and [32gammaP]ATP after 30 mins by scintillation counting
pIC50: −log10 of the molar value.
Value Kind: pIC50

Record O=[N+]([O-])c1ccc(-c2nc3ccccn3c2-c2ccccc2)cc1 . Reported pIC50: < 5.00

Record Clc1cc(Cl)cc(-c2c(-c3ccccc3)nc3ccccn23)c1 . Reported pIC50: < 5.00

Record Cc1ccc(-c2c(-c3ccccc3)nc3ccccn23)cc1 . Reported pIC50: < 5.00

Record c1ccc(-c2nc3ccccn3c2-c2ccccc2)cc1 . Reported pIC50: < 5.00

###

Method Description: Selectivity index, ratio of IC50 for human HeLa cells to IC50 for promastigote form of Leishmania major MHOM/IL/81/BNI
Type: toxicity, cell-based
Measurement Conditions: read-out: Ratio IC50
Reported selectivity ratio values are given for each entry in this list.
Hey, just send me the number, nothing else.

The cases that follow already have their selectivity ratio on record.
Record Fc1ccccc1-c1nc2ccccn2c1-c1ccccc1 . Reported selectivity ratio: 0.46

Record COc1ccc(-c2nc3ccccn3c2-c2cccc([N+](=O)[O-])c2)cc1 . Reported selectivity ratio: 2.14

Record Clc1cccc(-c2nc3ccccn3c2-c2ccccc2)c1 . Reported selectivity ratio: 1.14

Record Nc1ccc(-c2c(-c3ccccc3)nc3ccccn23)cc1 . Reported selectivity ratio: 0.65

Record CC(=O)Oc1ccc(-c2c(-c3ccccc3)nc3ccccn23)cc1 . Reported selectivity ratio: 2.5

Next:
Record CCOC(=O)c1ccc(-c2nc3ccccn3c2-c2ccccc2)cc1 . Reported selectivity ratio: 8.65

Record c1ccc(-c2nc3ccccn3c2-c2ccsc2)cc1 . Reported selectivity ratio: 2.45

###

Method Description: Methanol-buffer partition coefficient, log D of the compound by RP-HPLC analysis at pH 7.5
Format: physicochemical
Value Kind: chromatographic logD

Record COc1ccc(-c2c(-c3ccccc3)nc3ccccn23)cc1 . Reported chromatographic logD: 4.58

Record c1ccc(-c2nc3ccccn3c2-c2ccncc2)cc1 . Reported chromatographic logD: 2.87

Record Clc1cc(Cl)cc(-c2nc3ccccn3c2-c2ccccc2)c1 . Reported chromatographic logD: 6.1

Next:
Record O=[N+]([O-])c1ccc(-c2c(-c3ccccc3)nc3ccccn23)cc1 . Reported chromatographic logD: 4.35

Record CC(C)(C)C(=O)Oc1ccc(-c2c(-c3ccccc3)nc3ccccn23)cc1 . Reported chromatographic logD: 5.9

Record Cc1ccc(-c2c(-c3ccccc3)nc3ccccn23)cc1 . Reported chromatographic logD: 5.13

###

Tested on: HeLa
Method Description: Cytotoxicity against human HeLa cells after 96 hrs by resazurin-based spectrofluorimetric method
Assay type: cell-based
# if measured IC50 < 40 µM: t  # else: f

As a guide, the following entries are already answered.
Identify whether the compound c1ccc(-c2nc3ccccn3c2-c2ccncc2)cc1 records IC50 below 40 µM.
t

Identify whether the compound Clc1cc(Cl)cc(-c2c(-c3ccccc3)nc3ccccn23)c1 records IC50 below 40 µM.
t

Identify whether the compound CCOC(=O)c1ccc(-c2nc3ccccn3c2-c2ccccc2)cc1 records IC50 below 40 µM.
f

Identify whether the compound c1ccc(-c2nc3ccccn3c2-c2ccccc2)cc1 records IC50 below 40 µM.
t

Identify whether the compound Clc1cc(Cl)cc(-c2nc3ccccn3c2-c2ccccc2)c1 records IC50 below 40 µM.
f

Identify whether the compound COc1ccc(-c2nc3ccccn3c2-c2ccccc2)cc1 records IC50 below 40 µM.
f

Identify whether the compound CC(C)(C)C(=O)Oc1ccc(-c2c(-c3ccccc3)nc3ccccn23)cc1 records IC50 below 40 µM.
t

Identify whether the compound c1ccc(-c2nc3ccccn3c2-c2ccsc2)cc1 records IC50 below 40 µM.
t

Next:
Identify whether the compound Nc1ccc(-c2c(-c3ccccc3)nc3ccccn23)cc1 records IC50 below 40 µM.
t

Identify whether the compound c1ccc(-c2nc3ccccn3c2-c2cccnc2)cc1 records IC50 below 40 µM.
t

Identify whether the compound Clc1cc(Cl)cc(-c2nc3ccccn3c2-c2cccnc2)c1 records IC50 below 40 µM.
t
